tgt: alpha-synuclein fibril, F-type conformer (fibrils) (UniProt P37840 P37840:1-140)
experimentalDetails: FP filter; nitrocellulose filter; retained much more than random sequence
resultType: binding result

P65-G (P65_10854) (ssRNA, 2'-F on all pyrimidines) RNA: GGGAGAGUAUCCGUUGGAGGCAUCGCACAGUGUACACCUACACACAGCAUACCUGUUGGCAUCCCAGGUUGCCAGAUCGGAAGAGCGUCGUGUAGGGCAUUGCCCCAGCGUGACUGCCUA: binds
4F05-G (ssRNA, 2'-F on all pyrimidines) RNA: GGGAGAGUAUCCGUUGGAGGCAUGCCGCAGGCUACACCACAGCUUCCCCUUCAGCGUGUUGUGGAUACUCGGCAGAUCGGAAGAGCGUCGUGUAGGGCAUUGCCCCAGCGUGACUGCCUA: binds
4F02-G (ssRNA, 2'-F on all pyrimidines) RNA: GGGAGAGUAUCCGUUGGAGGCAUGCUGGCAGCACGCACCGCUGACCGCUGGCUGCACUAUGCGUGUGGAGUGCAGAUCGGAAGAGCGUCGUGUAGGGCAUUGCCCCAGCGUGACUGCCUA: binds
F124-G (PF_124) (ssRNA, 2'-F on all pyrimidines) RNA: GGGAGAGUAUCCGUUGGAGGCAUCACGGACACCUACCCGACGGCAUGUCAGGACACAUGUUGUGCUCCGUGUGAGAUCGGAAGAGCGUCGUGUAGGGCAUUGCCCCAGCGUGACUGCCUA: binds
